Experiment Summary: DSSTox (CPDBAS) Carcinogenic Potency Database Summary SingleCellCall Results
Condition Summary: animal chronic carcinogenicity bioassays, CPDB summary call
Calls of active or inactive are those of the source.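 Rule for the calls: active = a tumor-causing dose value with its tumor site reported for any sex and species group of a rodent or other animal cancer study; inconclusive = only studies judged inadequate by the national testing program; inactive = tested in at least one study, none positive.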
Choose one outcome from this list and give only that: yes (1) for active, no (0) for inactive

Please review the entries below; each comes with its answer.
Compound	Qualitative Label
[Cd+2].[Cl-].[Cl-]	yes (1)
CCC[CH2][Sn]([CH2]CCC)([CH2]CCC)[O][Sn]([CH2]CCC)([CH2]CCC)[CH2]CCC	no (0)
Nc1ccc([N+](=O)[O-])cc1	no (0)

input: GET /call?item= COC(C(=O)O)c1ccccc1 (stereo not drawn) returns the recorded outcome of this test.
output: no (0)

----------
Experiment Summary: DSSTox (CPDBAS) Carcinogenic Potency Database Summary SingleCellCall Results
Condition Summary: animal chronic carcinogenicity bioassays, CPDB summary call
Active and inactive are the calls of the source.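 How the source made its calls: active means a tumor-causing dose value with its tumor site reported for any sex and species group of a rodent or other animal cancer study; inconclusive means only studies judged inadequate by the national testing program; inactive means tested in at least one study, none positive.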
Choose one outcome from this list and give only that: label 1 (active), label 0 (inactive)

Nc1nnc(-c2ccc([N+](=O)[O-])o2)o1 label 1
Cc1ccc(O)c(O)c1 label 1
CCOC(=O)[C@]1(c2ccccc2)CCC=C[C@H]1N(C)C label 0
NC(=O)N/N=C/c1ccc([N+](=O)[O-])o1 label 1
c1ccc2[nH]c(-c3cscn3)nc2c1 label 0
C1N2CN3CN1CN(C2)C3 label 0
O=S(=O)(c1ccc(Cl)cc1)c1cc(Cl)c(Cl)cc1Cl label 0
CCSCC[C@H](N)C(=O)O label 1

input: GET /call?item= CC(=O)OCc1ccccc1 returns the recorded outcome of this test.
output: label 1

----------
Experiment Summary: DSSTox (CPDBAS) Carcinogenic Potency Database Summary SingleCellCall Results
Condition Summary: animal chronic carcinogenicity bioassays, CPDB summary call
The source made the active and inactive calls.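 How the source made its calls: active means a tumor-causing dose value with its tumor site reported for any sex and species group of a rodent or other animal cancer study; inconclusive means only studies judged inadequate by the national testing program; inactive means tested in at least one study, none positive.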
Choose one outcome from this list and give only that: Yes for active, No for inactive

Please review the entries below; each comes with its answer.
Compound	Qualitative Label
Cc1[nH]cnc1CSCCN=C(NC#N)N(C)N=O	No
ClC(Cl)=C(Cl)c1c(Cl)c(Cl)c(Cl)c(Cl)c1Cl	No
C1CCC(C(CC2CCCCN2)C2CCCCC2)CC1 (stereo not given)	No
Nc1ccccc1-c1ccccc1	Yes

Alright, here's another compound for you.
input: GET /call?item= CC(=O)NNC(=O)c1ccncc1 returns the recorded outcome of this test.
output: Yes

----------
Experiment Summary: DSSTox (CPDBAS) Carcinogenic Potency Database Summary SingleCellCall Results
Condition Summary: animal chronic carcinogenicity bioassays, CPDB summary call
Activity calls are given as the source filed them.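 Rule for the calls: active = a tumor-causing dose value with its tumor site reported for any sex and species group of a rodent or other animal cancer study; inconclusive = only studies judged inadequate by the national testing program; inactive = tested in at least one study, none positive.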
Choose one outcome from this list and give only that: active, inactive

input: GET /call?item= NCC1(CC(=O)O)CCCCC1 returns the recorded outcome of this test.
output: active

input: GET /call?item= C/C=C/C=O returns the recorded outcome of this test.
output: active

input: GET /call?item= CC(C)=CCl returns the recorded outcome of this test.
output: active

input: GET /call?item= O=C(O)/C=C/c1ccc(O)c(O)c1 returns the recorded outcome of this test.
output: active

input: GET /call?item= O=S(=O)(O)NC1CCCCC1 returns the recorded outcome of this test.
output: active

----------
Experiment Summary: DSSTox (CPDBAS) Carcinogenic Potency Database Summary SingleCellCall Results
Condition Summary: animal chronic carcinogenicity bioassays, CPDB summary call
Active and inactive are the calls of the source.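 The calls were made as follows: active = a tumor-causing dose value with its tumor site reported for any sex and species group of a rodent or other animal cancer study; inconclusive = only studies judged inadequate by the national testing program; inactive = tested in at least one study, none positive.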
Quantity Name: outcome

Compound	outcome
NNC(=O)c1ccccc1	active
NCCNc1cccc2ccccc12	inactive; active
Nc1ccc(Cc2ccc(N)cc2)cc1	active; inactive
CCC(CC)[N+](=O)[O-]	active
COC(=O)C(C)(C)Oc1ccc(-c2ccc(Cl)cc2)cc1	active
O=C(O)Cc1cccc2ccccc12	inactive; active
O=S(=O)(O)c1ccc2c(N=Nc3ccc(S(=O)(=O)O)c4ccccc34)c(O)c(S(=O)(=O)O)cc2c1	active
COc1cc(O)c2c(=O)c3c(OC)cc4c(c3oc2c1OC)C1C=COC1O4 (centres undefined)	active

Consider the additional compound presented here.
input: Report measured outcome; entry is CNN
output: active

Measured values drawn from PubChem BioAssay AID1189 for this set.
